Origin of values: ChEMBL document CHEMBL3877308

Kindly state hemolysis at 0.75 h, 100 µM for each of the entries shown.
- Protocol Notes: Hemolytic activity against human RBC at 100 uM after 45 mins by spectrophotometric method relative to control
- Type: ADME, cell-based, Erythrocyte
- Setup Conditions: red blood cells (RBC), read-out: Activity
Entry rule: numbers only, all in %.

Exercise: Recorded hemolysis at 0.75 h, 100 µM of CCCCCCCCCC(=O)N1CCC[C@H]1C(=O)N[C@H](C(=O)N[C@@H](C)C(=O)N[C@@H](CC(N)=O)C(=O)N[C@@H](C)B1O[C@@H]2C[C@@H]3C[C@@H](C3(C)C)[C@]2(C)O1)[C@H](C)O , please.
Solution: 0.4

Exercise: Any idea what hemolysis at 0.75 h, 100 µM was measured for CCCCc1ccc(-c2ccc(C(=O)N[C@@H](CCN)C(=O)N[C@H](C(=O)N[C@@H](C)C(=O)N[C@@H](CCCCN)C(=O)N[C@@H](C)B3O[C@@H]4C[C@@H]5C[C@@H](C5(C)C)[C@]4(C)O3)[C@H](C)O)cc2)cc1 ?
Solution: 12.8

Exercise: # query: hemolysis at 0.75 h, 100 µM of entry CCCCCCc1ccc(-c2ccc(C(=O)N3CCC[C@H]3C(=O)N[C@H](C(=O)N[C@@H](C)C(=O)N[C@@H](CC(N)=O)C(=O)N[C@@H](C)B(O)O)[C@H](C)O)cc2)cc1
Solution: 1.1

Exercise: Which hemolysis at 0.75 h, 100 µM is listed for CCCCCCc1ccc(-c2ccc(C(=O)N3CC(CN)C[C@H]3C(=O)N[C@H](C(=O)N[C@@H](C)C(=O)N[C@@H](CC(N)=O)C(=O)N[C@@H](C)B3O[C@@H]4C[C@@H]5C[C@@H](C5(C)C)[C@]4(C)O3)[C@H](C)O)cc2)cc1 (stereo partly specified) ?
Solution: 5.7

Exercise: So what's the measured hemolysis at 0.75 h, 100 µM for this one? CCCCCCc1ccc(-c2ccc(C(=O)N3CCC[C@H]3C(=O)N[C@H](C(=O)N[C@@H](C)C(=O)N[C@@H](CC(N)=O)C(=O)N[C@@H](C)B3O[C@@H]4C[C@@H]5C[C@@H](C5(C)C)[C@]4(C)O3)[C@H](C)O)cc2)cc1
Solution: 1.1

Exercise: Look up hemolysis at 0.75 h, 100 µM for this compound: CCCCCCc1ccc(-c2ccc(C(=O)N3CC(CN)C[C@H]3C(=O)N[C@H](C(=O)N[C@@H](C)C(=O)N[C@@H](CC(N)=O)C(=O)N[C@@H](C)B(O)O)[C@H](C)O)cc2)cc1 (stereo partly specified)
Solution: 2.5

---

For each of the molecules below, state its Activity.
- Study Target: Signal peptidase I (Escherichia coli K-12) (UniProt P00803)
- Sequence (P00803 whole entry): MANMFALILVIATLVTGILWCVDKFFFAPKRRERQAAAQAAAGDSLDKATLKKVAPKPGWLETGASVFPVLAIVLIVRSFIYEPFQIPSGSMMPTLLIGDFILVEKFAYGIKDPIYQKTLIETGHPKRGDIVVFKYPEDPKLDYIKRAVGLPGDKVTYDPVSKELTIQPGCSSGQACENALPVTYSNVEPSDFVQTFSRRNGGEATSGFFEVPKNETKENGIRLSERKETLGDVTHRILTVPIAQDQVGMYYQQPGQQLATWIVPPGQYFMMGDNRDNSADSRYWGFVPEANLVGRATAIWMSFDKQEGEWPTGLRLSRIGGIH
- Protocol Notes: Inhibition of full length Escherichia coli His6-tagged LepB expressed in Escherichia coli C43(DE3) assessed as residual activity at 0.156 uM using dabcyl-VEVGGTATAGAFSRPGLE-(EDANS) as substrate preincubated for 10 mins followed by substrate addition measured for 2 hrs by FRET assay relative to control
Provide the reading as a plain figure in %.

Exercise: Activity lookup needed for CCCCCCc1ccc(-c2ccc(C(=O)N3CC(CN)C[C@H]3C(=O)N[C@H](C(=O)N[C@@H](C)C(=O)N[C@@H](CC(N)=O)C(=O)N[C@@H](C)B(O)O)[C@H](C)O)cc2)cc1 (stereo partly specified) , thanks.
Solution: 27.4

Exercise: Could you tell me which Activity is on file for CCCCCCc1ccc(-c2ccc(C(=O)N3CC(CN)C[C@H]3C(=O)N[C@H](C(=O)N[C@@H](C)C(=O)N[C@@H](CC(N)=O)C(=O)N[C@@H](C)B3O[C@@H]4C[C@@H]5C[C@@H](C5(C)C)[C@]4(C)O3)[C@H](C)O)cc2)cc1 (stereo partly specified) ?
Solution: 6.31

Exercise: Given the entry CCCCCCc1ccc(-c2ccc(C(=O)N3CCC[C@H]3C(=O)N[C@H](C(=O)N[C@@H](C)C(=O)N[C@@H](CC(N)=O)C(=O)N[C@@H](C)B3O[C@@H]4C[C@@H]5C[C@@H](C5(C)C)[C@]4(C)O3)[C@H](C)O)cc2)cc1 , report its measured Activity.
Solution: 16.9

Exercise: Item CCCCCCc1ccc(-c2ccc(C(=O)N3CCC[C@H]3C(=O)N[C@H](C(=O)N[C@@H](C)C(=O)N[C@@H](CC(N)=O)C(=O)N[C@@H](C)B(O)O)[C@H](C)O)cc2)cc1 has what recorded Activity?
Solution: 62.6

Exercise: Record request: Activity value, item CCCCCCCCCC(=O)N1CCC[C@H]1C(=O)N[C@H](C(=O)N[C@@H](C)C(=O)N[C@@H](CC(N)=O)C(=O)N[C@@H](C)B1O[C@@H]2C[C@@H]3C[C@@H](C3(C)C)[C@]2(C)O1)[C@H](C)O
Solution: 29.6

Exercise: Given CCCCc1ccc(-c2ccc(C(=O)N[C@@H](CCN)C(=O)N[C@H](C(=O)N[C@@H](C)C(=O)N[C@@H](CCCCN)C(=O)N[C@@H](C)B3O[C@@H]4C[C@@H]5C[C@@H](C5(C)C)[C@]4(C)O3)[C@H](C)O)cc2)cc1 , state its recorded Activity.
Solution: 25.3
